# Assay Protocol: chemical genetic growth profiling, strain panel (AID 1159580);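 also: tested at 20 µM; growth read once vehicle control cultures reached saturation at 30 °C; 1 = growth at the plate median or of vehicle wells; lower values mean less growth of the strain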
# Applied Conditions: S. cerevisiae deletion strains, growth OD, locus YAL030W, strain snc1, active compounds read low
Screen size: about 5,500 compounds; about 2,000 (36%) were called active. Roughly 18% stayed inconclusive and do not appear here. The list shows a part of the results.
normalized growth for assorted compounds

>  <Compound>
Nc1ncnc2c1ncn2[C@@H]1O[C@H](CO)[C@@H](O)[C@H]1O

>  <normalized growth>
0.995

$$$$
>  <Compound>
CC(=O)Nc1cc([As](=O)(O)O)ccc1O

>  <normalized growth>
1.01

$$$$
>  <Compound>
OC[C@@H](O)[C@@H](O[C@@H]1O[C@H](CO)[C@@H](O)[C@H](O)[C@H]1O)[C@H](O)[C@@H](O)CO

>  <normalized growth>
0.993

$$$$
>  <Compound>
CCCCC1=NC2(CCCC2)C(=O)N1Cc1ccc(-c2ccccc2-c2nn[nH]n2)cc1

>  <normalized growth>
1.02

$$$$
>  <Compound>
Nc1ncnc2c1ncn2C1C[C@H](O)[C@@H](CO)O1 (stereo not given in full)

>  <normalized growth>
1.01

$$$$
